Origin of measurements: patent US12077503B2

Listed here are compounds together with their documented Plant response rating, Ragweed.
- Tested on: ragweed (common ragweed, Ambrosia elatior)
- assay.method.text: Test A postemergence
- Type: in vivo
- cond: Postemergence, 500 g ai/ha; 0 to 100 scale where 0 is no effect and 100 is complete control
property: Plant response rating, Ragweed

                                   compound                             system_tested  reading
0  O=C1NCC(c2cc(F)cc(Cl)c2)C1C(=O)Nc1cccc(F)c1F (stereo not drawn) [Compound 492]  ragweed (common ragweed, Ambrosia elatior)       70
1  O=C1NCC(c2ccc(Oc3ccccc3)cc2)C1C(=O)Nc1cccc(F)c1F (racemic) [Compound 536]  ragweed (common ragweed, Ambrosia elatior)        0
2  CN1CC(c2cccc(OC(F)F)c2)C(C(=O)Nc2ccccc2F)C1=O (stereo not drawn) [Compound 618]  ragweed (common ragweed, Ambrosia elatior)       20
3  CN1CC(c2ccccc2)C(C(=S)Nc2ccccc2F)C1=O (stereo not drawn) [Compound 471]  ragweed (common ragweed, Ambrosia elatior)        0
4  CCc1cccc(C2CN(C)C(=O)C2C(=O)Nc2ccccc2F)c1 (stereo not drawn) [Compound 567]  ragweed (common ragweed, Ambrosia elatior)        0
5  CN1CC(c2cccc(C(F)(F)F)c2)C(C(=O)Nc2cccc(Cl)c2F)C1=O (stereo not drawn) [Compound 574]  ragweed (common ragweed, Ambrosia elatior)        0
6  O=C(Nc1cccc(F)c1F)C1C(=O)N(CC=CBr)CC1c1cccc(C(F)(F)F)c1 (stereo not drawn) [Compound 527]  ragweed (common ragweed, Ambrosia elatior)        0
7  O=C1NCC(c2cc(C(F)(F)F)ccc2F)C1C(=O)Nc1ccc(F)cc1F (stereo not drawn) [Compound 595]  ragweed (common ragweed, Ambrosia elatior)        0
8  O=C1NCC(c2ccsc2Br)C1C(=O)Nc1ccccc1F (stereo not drawn) [Compound 597]  ragweed (common ragweed, Ambrosia elatior)        0
